tested_target: hFASN enzyme (full length) (Homo sapiens, UniProt P49327)
Construct: 10 μL hFASN enzyme (full length, 300 ng, purified in house); made in house
Sequence (P49327 whole entry): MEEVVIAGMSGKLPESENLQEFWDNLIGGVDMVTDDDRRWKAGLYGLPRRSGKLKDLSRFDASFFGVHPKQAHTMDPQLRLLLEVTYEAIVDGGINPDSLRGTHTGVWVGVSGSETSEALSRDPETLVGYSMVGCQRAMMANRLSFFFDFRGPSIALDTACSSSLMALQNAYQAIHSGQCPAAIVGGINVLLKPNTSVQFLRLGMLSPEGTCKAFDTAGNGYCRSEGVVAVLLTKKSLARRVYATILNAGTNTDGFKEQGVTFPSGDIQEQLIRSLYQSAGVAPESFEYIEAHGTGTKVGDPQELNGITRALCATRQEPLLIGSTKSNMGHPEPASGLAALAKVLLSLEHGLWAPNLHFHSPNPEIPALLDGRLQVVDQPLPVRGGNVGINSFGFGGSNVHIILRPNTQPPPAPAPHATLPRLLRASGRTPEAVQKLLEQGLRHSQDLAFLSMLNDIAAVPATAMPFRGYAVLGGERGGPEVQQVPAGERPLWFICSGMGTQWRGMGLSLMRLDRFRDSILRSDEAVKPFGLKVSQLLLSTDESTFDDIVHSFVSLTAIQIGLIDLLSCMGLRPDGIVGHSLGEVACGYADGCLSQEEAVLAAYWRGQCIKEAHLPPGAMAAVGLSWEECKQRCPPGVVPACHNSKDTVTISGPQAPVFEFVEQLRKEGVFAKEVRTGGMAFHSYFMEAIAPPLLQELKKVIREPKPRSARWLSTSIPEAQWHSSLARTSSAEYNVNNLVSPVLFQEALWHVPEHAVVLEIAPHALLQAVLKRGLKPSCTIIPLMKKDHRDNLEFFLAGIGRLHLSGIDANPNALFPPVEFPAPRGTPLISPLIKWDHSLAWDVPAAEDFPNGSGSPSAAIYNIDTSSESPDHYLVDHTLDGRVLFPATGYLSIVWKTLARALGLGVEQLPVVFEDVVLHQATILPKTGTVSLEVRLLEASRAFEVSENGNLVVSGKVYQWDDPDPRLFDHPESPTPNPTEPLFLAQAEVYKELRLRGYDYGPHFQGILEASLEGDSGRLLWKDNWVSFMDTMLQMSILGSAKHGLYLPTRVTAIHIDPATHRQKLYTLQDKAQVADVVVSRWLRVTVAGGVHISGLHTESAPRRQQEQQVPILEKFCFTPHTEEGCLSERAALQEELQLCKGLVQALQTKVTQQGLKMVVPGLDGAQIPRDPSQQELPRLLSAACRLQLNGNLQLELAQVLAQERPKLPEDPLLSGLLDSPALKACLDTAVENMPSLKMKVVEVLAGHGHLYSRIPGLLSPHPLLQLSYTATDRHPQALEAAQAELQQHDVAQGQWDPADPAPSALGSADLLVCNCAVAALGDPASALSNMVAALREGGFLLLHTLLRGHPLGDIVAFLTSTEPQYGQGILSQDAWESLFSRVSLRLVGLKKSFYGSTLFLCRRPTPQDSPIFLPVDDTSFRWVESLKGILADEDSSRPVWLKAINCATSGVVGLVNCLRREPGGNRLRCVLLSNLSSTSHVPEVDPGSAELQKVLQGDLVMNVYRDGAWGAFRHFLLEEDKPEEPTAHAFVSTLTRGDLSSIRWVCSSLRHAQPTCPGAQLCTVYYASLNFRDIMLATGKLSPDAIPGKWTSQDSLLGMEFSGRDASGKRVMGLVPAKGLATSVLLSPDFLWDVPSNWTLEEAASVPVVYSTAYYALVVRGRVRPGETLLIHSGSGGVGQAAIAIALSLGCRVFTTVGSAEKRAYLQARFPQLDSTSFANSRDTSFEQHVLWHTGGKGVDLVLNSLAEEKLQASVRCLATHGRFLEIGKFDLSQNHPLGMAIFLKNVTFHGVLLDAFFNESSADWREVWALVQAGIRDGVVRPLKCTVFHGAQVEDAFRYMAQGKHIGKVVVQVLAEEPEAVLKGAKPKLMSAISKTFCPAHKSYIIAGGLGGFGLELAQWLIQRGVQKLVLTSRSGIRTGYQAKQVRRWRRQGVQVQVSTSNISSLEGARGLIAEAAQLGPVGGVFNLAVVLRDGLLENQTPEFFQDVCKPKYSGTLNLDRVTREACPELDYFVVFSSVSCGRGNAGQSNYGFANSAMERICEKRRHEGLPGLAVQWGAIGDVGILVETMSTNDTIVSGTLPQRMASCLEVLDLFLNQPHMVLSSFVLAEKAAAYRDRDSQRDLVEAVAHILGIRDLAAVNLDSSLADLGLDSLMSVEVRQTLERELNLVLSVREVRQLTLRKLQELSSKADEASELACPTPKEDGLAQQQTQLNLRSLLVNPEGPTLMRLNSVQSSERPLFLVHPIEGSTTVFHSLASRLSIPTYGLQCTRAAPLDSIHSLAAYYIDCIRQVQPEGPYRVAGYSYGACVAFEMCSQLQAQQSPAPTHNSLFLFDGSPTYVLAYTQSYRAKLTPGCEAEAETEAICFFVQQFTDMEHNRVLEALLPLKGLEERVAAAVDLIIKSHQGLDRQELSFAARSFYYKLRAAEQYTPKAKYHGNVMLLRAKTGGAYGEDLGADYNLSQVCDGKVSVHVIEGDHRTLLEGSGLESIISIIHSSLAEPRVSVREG
measurement_description: Fatty Acid Synthase (FASN) inhibition scintillation proximity assay
Format: biochemical
conditions: read-out: Human FASN % inhibition @ 10 μM, 10 μM test compound
reported_property: inhibition at 10 µM (%)

>>> readout_number("O=C(C1CC1)N1CC[C@@H](CN2C(=O)C3(CC3)N=C2c2ccc(-c3ccc4cc(F)ccc4c3)cc2F)C1 [compound 259]")
95
>>> readout_number("O=C(C1CC1)N1CC[C@@H](CN2C(=O)C3(CC3)N=C2c2ccc(-c3cccc(S(=O)(=O)C4CC4)c3)cc2F)C1 [compound 647]")
91
>>> readout_number("Cn1cc(-c2ccc(-c3ccc(C4=NC5(CCOC5)C(=O)N4CC4CCN(S(C)(=O)=O)C4)cc3)cc2)cn1 (centres unmarked) [compound 939]")
2
>>> readout_number("Cn1cc(-c2ccc(-c3ccc(C4=NC5(CC5)C(=O)N4CC4CCN(C(=O)C5CC5)CC4)cc3)cc2)cn1 [compound 56]")
89.2
>>> readout_number("Cn1ncc2cc(-c3ccc(C4=NC5(CCOC5)C(=O)N4CC4CN(C(=O)N5CCCC5)C4)cc3)ccc21 (centres unmarked) [compound 945]")
38

====

tested_target: hFASN enzyme (full length) (Homo sapiens, UniProt P49327)
Construct: 10 μL hFASN enzyme (full length, 300 ng, purified in house); made in house
measurement_description: Fatty Acid Synthase (FASN) inhibition scintillation proximity assay
Type: biochemical
conditions: read-out: Human FASN pIC50 (converted)
reported_property: IC50

>>> result("Nc1cncc(-c2ccc(C3=NC4(CC4)C(=O)N3C[C@@H]3CCN(C(=O)C4CC4)C3)cc2)c1")
"> 10 µM"
>>> result("O=C(c1nccs1)N1CC[C@@H](CN2C(=O)C3(CCOCC3)N=C2c2ccc(-c3ccc4cccnc4c3)cc2)C1")
"~5.01 µM"
>>> result("O=C(C1CC1)N1CC[C@@H](CN2C(=O)C3(CCCC3)N=C2c2ccc(-c3ccncc3)cc2)C1")
"> 10 µM"
>>> result("O=C(C1CC1)N1CCC(CN2C(=O)C3(CC3)N=C2c2ccc(-c3ccc4ocnc4c3)cc2)CC1")
"> 10 µM"
>>> result("Cn1ncc2cc(-c3ccc(C4=NC5(CCOC5)C(=O)N4C[C@@H]4CCN(S(C)(=O)=O)C4)cc3)ccc21 (stereo partly drawn)")
"> 10 µM"
>>> result("COC(=O)N1CC(CN2C(=O)C3(CCOCC3)N=C2c2ccc(-c3ccc(-c4cnn(C)c4)cc3)cc2)C1")
"> 10 µM"

====

tested_target: hFASN enzyme (full length) (Homo sapiens)
Construct: 10 μL hFASN enzyme (full length, 300 ng, purified in house); made in house
measurement_description: Fatty Acid Synthase (FASN) inhibition scintillation proximity assay
Type: biochemical
conditions: read-out: Human FASN % inhibition @ 10 μM, 10 μM test compound
reported_property: inhibition at 10 µM (%)

>>> readout_number("CC(C)C(=O)N1CCC2(CC1)N=C(c1ccc(-c3ccc4c(cnn4C)c3)cc1)N(C[C@@H]1CCN(C(=O)C3CC3)C1)C2=O [compound 139]")
112
>>> readout_number("O=C(C1CC1)N1CC[C@H](CN2C(=O)C3(CC3)N=C2c2ccc(-c3ccc(-c4cccc(Cl)c4)cc3)cc2)C1 [compound 412]")
96
>>> readout_number("Cc1cc(-c2ccc3cc(OC(C)C)ccc3c2)ccc1C1=NC2(CC2)C(=O)N1CC1CN(C(=O)C2(C)CC2)C1 [compound 581]")
93
>>> readout_number("O=C(CC(F)(F)F)N1CC[C@@H](CN2C(=O)C3(CCCC3)N=C2c2ccc(-c3ccc4occc4c3)cc2)C1 [compound 119]")
107
>>> readout_number("O=C(C1CC1)N1CCC(CN2C(=O)C3(CC3)N=C2c2ccc(-c3ccc4[nH]ccc4c3)cc2)CC1 [compound 10]")
89.7

====

Listing: IC50 of selected compounds
tested_target: hFASN enzyme (full length) (Homo sapiens)
Construct: 10 μL hFASN enzyme (full length, 300 ng, purified in house); made in house
measurement_description: Fatty Acid Synthase (FASN) inhibition scintillation proximity assay
Format: biochemical
conditions: read-out: Human FASN pIC50 (converted)
reported_property: IC50 (µM)

>>> readout_number("O=C([C@H]1CCCO1)N1CC[C@@H](CN2C(=O)C3(CCOC3)N=C2c2ccc(-c3ccc4occc4c3)cc2)C1 (stereo partly shown)")
0.214
>>> readout_number("Cc1cc(C2=NC3(CC3)C(=O)N2CC2CN(C(=O)C3CC3)C2)ccc1-c1ccc2oc(C#N)cc2c1")
3.09
>>> readout_number("CC(C)N1CCC2(CC1)N=C(c1ccc(-c3ccc4occc4c3)cc1)N(CC1CN(C(=O)C3CC3)C1)C2=O")
3.39

====

tested_target: hFASN enzyme (full length) (Homo sapiens)
Construct: 10 μL hFASN enzyme (full length, 300 ng, purified in house); made in house
measurement_description: Fatty Acid Synthase (FASN) inhibition scintillation proximity assay
Type: biochemical
conditions: read-out: Human FASN % inhibition @ 10 μM, 10 μM test compound
Listing of recorded inhibition at 10 µM by entry.
reported_property: inhibition at 10 µM (%)

>>> readout_number("Cc1cc(-c2ccc3[nH]ncc3c2)ccc1C1=NC2(CC2)C(=O)N1C[C@@H]1CCN(C(=O)C2CC2)C1 [compound 286]")
103
>>> readout_number("Cn1cc(-c2ccc(-c3ccc(C4=NC5(CC5)C(=O)N4C[C@@H]4CCN(C(=O)C5(O)CC5)C4)c(F)c3)cc2)cn1 [compound 379]")
102
>>> readout_number("Cc1cc2cc(-c3ccc(C4=NC5(CCN(C(=O)C6CC6)CC5)C(=O)N4C[C@@H]4CCN(C(=O)C5CC5)C4)cc3)ccc2o1 [compound 171]")
107
>>> readout_number("O=C(C1CC1)N1CC[C@@H](CN2C(=O)C3(CC3)N=C2c2ccc(-c3nc4ccccc4[nH]3)cc2F)C1 [compound 538]")
99
>>> readout_number("Cc1cc2cc(-c3ccc(C4=NC5(CC5)C(=O)N4C[C@@H]4CCN(C(=O)C5CC5)C4)cc3)ccc2[nH]1 [compound 214]")
99
>>> readout_number("O=C(C1CC1)N1CC(CN2C(=O)C3(CC3)N=C2c2ccc(-c3ccc4sccc4c3)c(F)c2)C1 [compound 404]")
97
>>> readout_number("C=CC(=O)N1CCC2(CC1)N=C(c1ccc(-c3ccc4ccoc4c3)cc1)N(C[C@@H]1CCN(C(=O)C3CC3)C1)C2=O [compound 741]")
102
>>> readout_number("O=C(C1CC1)N1CC[C@@H](CN2C(=O)C3(CCCC3)N=C2c2ccc(-c3ccc(Cl)cc3)cc2F)C1 [compound 121]")
115
>>> readout_number("Cc1cc(C2=NC3(CC3)C(=O)N2C[C@@H]2CCN(C(=O)C3CC3)C2)ccc1-c1ccc2occc2c1 [compound 180]")
101

====

Form field: IC50 (one value per entry).
tested_target: hFASN enzyme (full length) (Homo sapiens, UniProt P49327)
Construct: 10 μL hFASN enzyme (full length, 300 ng, purified in house); made in house
measurement_description: Fatty Acid Synthase (FASN) inhibition scintillation proximity assay
Format: biochemical
conditions: read-out: Human FASN pIC50 (converted)
reported_property: IC50

>>> result("Cn1cc(-c2ccc(-c3ccc(C4=NC5(CCOCC5)C(=O)N4CC4CN(C(=O)c5nccs5)C4)cc3)cc2)cn1 [compound 911]")
"> 10 µM"
>>> result("O=C(N1CCC(CN2C(=O)C3(CCOC3)N=C2c2ccc(-c3ccc4occc4c3)cc2)C1)C(F)(F)F (stereo not shown) [compound 938]")
"> 10 µM"
>>> result("Cn1ncc2cc(-c3ccc(C4=NC5(CCOC5)C(=O)N4CC4CN(C(=O)C(F)(F)F)C4)cc3)ccc21 (stereo not shown) [compound 937]")
"> 10 µM"
>>> result("O=C(c1nccs1)N1CC[C@@H](CN2C(=O)C3(CCOCC3)N=C2c2ccc(-c3ccc4occc4c3)cc2)C1 [compound 958]")
"> 10 µM"

====

tested_target: hFASN enzyme (full length) (Homo sapiens, UniProt P49327)
Construct: 10 μL hFASN enzyme (full length, 300 ng, purified in house); made in house
measurement_description: Fatty Acid Synthase (FASN) inhibition scintillation proximity assay
Assay type: biochemical
conditions: read-out: Human FASN % inhibition @ 10 μM, 10 μM test compound
reported_property: inhibition at 10 µM (%)

>>> readout_number("Cn1cc(-c2ccc(-c3ccc(C4=NC5(CCOC5)C(=O)N4CC4CN(C(=O)c5nccs5)C4)cc3)cc2)cn1 (stereo not drawn)")
2
>>> readout_number("Cn1cc(-c2ccc(-c3ccc(C4=NC5(CCOCC5)C(=O)N4CC4CN(C(=O)c5nccs5)C4)cc3)cc2)cn1")
7
>>> readout_number("O=C(C1CC1)N1CC(CN2C(=O)C3(CC3)N=C2c2ccc(-c3ccc4nn(CC5CC5)cc4c3)cc2F)C1")
73
>>> readout_number("O=C([C@H]1CCCO1)N1CC(CN2C(=O)C3(CCOC3)N=C2c2ccc(-c3ccc4occc4c3)cc2)C1 (stereo partly drawn)")
87
>>> readout_number("O=C(C1CC1)N1CC[C@@H](CN2C(=O)C3(CC3)N=C2c2ccc(-c3ccc4[nH]ncc4c3)c(F)c2)C1")
101
>>> readout_number("O=C(C1CC1)N1CC[C@@H](CN2C(=O)C3(CC3)N=C2c2ccc(-c3ccc4sccc4c3)s2)C1")
93
>>> readout_number("O=C(C1CC1)N1CC[C@@H](CN2C(=O)C3(CC3)N=C2c2ccc(-c3ccc4[nH]ncc4c3)cc2F)C1")
97
>>> readout_number("Cn1ncc2ccc(-c3ccc(C4=NC5(CC5)C(=O)N4CC4CN(C(=O)C5CC5)C4)cc3)cc21")
94.9
>>> readout_number("Cn1cc(-c2ccc(-c3ccc(C4=NC5(CCOC5)C(=O)N4C[C@@H]4CCN(C(=O)C5CC5)C4)cc3)cc2)cn1 (stereo partly drawn)")
98
>>> readout_number("COCCN1CCC2(CC1)N=C(c1ccc(-c3ccc4[nH]ncc4c3)cc1)N(C[C@@H]1CCN(C(=O)C3CC3)C1)C2=O")
99
>>> readout_number("Nc1cc2cc(-c3ccc(C4=NC5(CC5)C(=O)N4C[C@@H]4CCN(C(=O)C5CC5)C4)cc3)ccc2cn1")
103
>>> readout_number("Cn1cnc2cc(-c3ccc(C4=NC5(CC5)C(=O)N4CC4CN(C(=O)C5(C)CC5)C4)c(F)c3)ccc21")
100
>>> readout_number("Cn1ncc2c(-c3ccc(C4=NC5(CC5)C(=O)N4CC4CN(C(=O)C5CC5)C4)cc3)cccc21")
96
>>> readout_number("Cn1ncc2cc(-c3ccc(C4=NC5(CC5)C(=O)N4CC4CN(C(=O)C5CC5)C4)cc3F)ccc21")
63
>>> readout_number("O=C(C1CC1)N1CC(CN2C(=O)C3(CC3)N=C2c2ccc(-c3cccc(SC4CC4)c3)cc2F)C1")
100
>>> readout_number("O=C(C1CC1)N1CC[C@@H](CN2C(=O)C3(CCCC3)N=C2c2ccc(-c3cccc4cnccc34)cc2)C1")
100
>>> readout_number("O=C(C1CC1)N1CC(CN2C(=O)C3(CCN(CCO)CC3)N=C2c2ccc(-c3ccc4[nH]ncc4c3)cc2)C1")
71
>>> readout_number("O=C(C1CC1)N1CC[C@@H](CN2C(=O)C3(CC3)N=C2c2ccc(-c3cnc4ccccc4c3)cc2F)C1")
99
>>> readout_number("O=C(C1CC1)N1CC(CN2C(=O)C3(CC3)N=C2c2ccc(-c3ccc4cccnc4n3)cc2)C1")
94
>>> readout_number("O=C(C1CC1)N1CC[C@@H](CN2C(=O)C3(CCCC3)N=C2c2ccc(-c3ccc4[nH]c(=O)[nH]c4c3)cc2F)C1")
98
>>> readout_number("Cc1sc2ccc(-c3ccc(C4=NC5(CC5)C(=O)N4C[C@@H]4CCN(C(=O)C5CC5)C4)cc3F)cc2c1C")
99
